Reference source: patent US11760773B2

RUN_DESCRIPTION: Int 1-4 plasma PK in the male cynomolgus monkey (study f)
Assay type: in vivo
TEST_PARAMETERS: after iv Int 1-4 5 mg/kg (study f)
Exercise: state measured clearance for each of the compounds provided.
Quick reminder: number only, in mL/min/kg, skip the unit.

// field: clearance; key: Nc1ccn([C@@H]2O[C@H](CO)[C@@H](O)C2(F)F)c(=O)n1 [Gemcitabine, gemcitabine] ; value = 3.71

Recorded clearance (compound COc1cc(OC)c2oc(COC(=O)Nc3ccn([C@@H]4O[C@H](CO)[C@@H](O)C4(F)F)c(=O)n3)cc2c1 [Int 1-4] ): 15.4
